These entries and their values trace back to ChEMBL document CHEMBL3875196.

Record form. Attribute: IC50. Fill in for each entry.
- targetOrTestSystem: Phosphatidylinositol 4,5-bisphosphate 3-kinase catalytic subunit alpha isoform (Homo sapiens, UniProt P42336, H1047R)
- Sequence (P42336 whole entry H1047R, canonical isoform): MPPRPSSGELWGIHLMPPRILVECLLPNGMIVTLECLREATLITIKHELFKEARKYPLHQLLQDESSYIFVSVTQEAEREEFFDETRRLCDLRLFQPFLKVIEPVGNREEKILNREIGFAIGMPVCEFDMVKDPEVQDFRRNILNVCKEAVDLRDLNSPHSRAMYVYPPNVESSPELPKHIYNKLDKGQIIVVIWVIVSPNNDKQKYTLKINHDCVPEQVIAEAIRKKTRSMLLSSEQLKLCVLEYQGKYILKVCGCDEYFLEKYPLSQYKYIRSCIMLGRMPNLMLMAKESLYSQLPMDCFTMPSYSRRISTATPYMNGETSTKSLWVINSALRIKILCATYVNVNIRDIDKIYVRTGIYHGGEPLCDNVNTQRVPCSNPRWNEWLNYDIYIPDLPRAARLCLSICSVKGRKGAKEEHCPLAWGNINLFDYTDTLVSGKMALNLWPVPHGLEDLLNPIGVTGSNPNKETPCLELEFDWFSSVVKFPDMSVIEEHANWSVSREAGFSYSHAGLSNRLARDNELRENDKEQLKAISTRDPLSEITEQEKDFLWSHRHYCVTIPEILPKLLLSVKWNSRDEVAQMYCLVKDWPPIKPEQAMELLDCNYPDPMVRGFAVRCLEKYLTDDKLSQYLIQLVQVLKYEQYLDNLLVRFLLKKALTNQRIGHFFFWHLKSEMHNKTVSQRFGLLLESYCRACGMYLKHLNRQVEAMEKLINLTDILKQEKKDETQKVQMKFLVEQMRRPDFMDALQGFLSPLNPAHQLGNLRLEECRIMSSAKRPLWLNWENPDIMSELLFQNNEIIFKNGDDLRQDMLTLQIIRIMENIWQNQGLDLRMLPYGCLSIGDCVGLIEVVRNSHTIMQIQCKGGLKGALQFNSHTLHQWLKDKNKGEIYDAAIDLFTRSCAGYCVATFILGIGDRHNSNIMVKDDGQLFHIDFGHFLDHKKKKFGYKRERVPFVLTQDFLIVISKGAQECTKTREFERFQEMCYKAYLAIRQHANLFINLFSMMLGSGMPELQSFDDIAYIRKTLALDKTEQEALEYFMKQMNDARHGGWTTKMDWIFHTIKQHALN
- procedureDetails: Inhibition of p110alpha H1047R mutant in human HCT116 cells assessed as suppression of PKB phosphorylation at Ser473 preincubated for 15 mins followed by insulin stimulation for 5 mins by immunoblot analysis
Numeric only. Scale: nM

Measured IC50, "CN(CCc1c[nH]cn1)c1ccc([N+](=O)[O-])cc1S(=O)(=O)N(C)/N=C/c1cnn2ccc(C#N)cc12" : 67

IC50 for "CN(C)CCCN(C)c1ccc([N+](=O)[O-])cc1S(=O)(=O)N(C)/N=C/c1cnn2ccc(C#N)cc12" is 72

Entry under test: "CN(CCn1ccnc1)c1ccc([N+](=O)[O-])cc1S(=O)(=O)N(C)/N=C/c1cnn2ccc(C#N)cc12" . Its IC50 was 111
